Reference for the values: PubChem BioAssay (NCI)

- System: NCI-H322M lung
- procedure text: NCI-60 one-dose screen, 48 h (100 = growth as untreated, 0 = no growth, -100 = all killed)
- assay setup: 10 µM unless noted
The panel holds about 83,000 compounds, 20% with a hit somewhere; the sample as a whole holds those more often.
We use 90% as the dividing line for growth: on or above the line is T, below is F.

Record `N#CC(C#N)=C1NC(c2ccccc2)=C(c2ccccc2)C(c2ccccc2Cl)=C1C#N` ; criterion: growth no lower than 90%. Met?
T

Check if growth >= 90% (inclusive). Item: `Cc1[nH]c(N=Nc2ccccc2)nc1N=Nc1ccccc1`
F

Kindly determine if growth recorded for `CC1=C(CCCOC(=O)NCCCl)C2=C(C)C3(CC3)[C@@](C)(O)C(=O)C2=C1` is above or exactly 90%.
F

Can `O=C1CS/C(=N/c2nnc(-c3ccc(O)cc3)s2)N1` be said to have growth at or above 90%?
T

Entry `C#C[C@@]1(O)[C@@H](CO)O[C@@H](n2ccc3c(N)ncnc32)[C@@H]1O` : is its growth no less than 90%?
F

API: above_or_equal(metric=growth, cutoff=90%) for item `COc1cc(/C=C/C(=O)c2cccs2)ccc1OCc1ccc(Cl)nc1`
F

Given the entry `C=C1C(=O)O[C@H]2[C@H]1CC/C(COC(=O)c1cccnc1N)=C\CC[C@@]1(C)O[C@@H]21` , answer whether its growth meets or surpasses 90%.
F

Identify whether the reported growth of the following compound is 90% or greater: `CCCNc1nc(C)[nH]c(=O)c1S`
F

In plain terms: is recorded growth at least 90% for `COC(=O)[C@]1(C)CCC[C@]2(C)[C@H]3C[C@H]4C(C(C)C)=C[C@]3(CC[C@H]21)[C@@H]1C(=O)N(CCC#N)C(=O)[C@@H]14` ?
T

Kindly review the next compound as well.
Say whether `CC(C)(C)CC(C)(C)Cc1ccc(OCCOCC[N+](C)(C)Cc2ccccc2)cc1` shows growth of 90% or more.
F

----------
- Test system: BT-549 breast
- procedure text: NCI-60 one-dose screen, 48 h (100 = growth as untreated, 0 = no growth, -100 = all killed)
- assay setup: 10 µM unless noted
Compounds without any hit were thinned out: in the full panel of roughly 83,000, 20% have a hit. Activity calls are given as the source filed them. Rule for the calls: active = growth percent below 10; inactive = the rest.
Let's look at some molecules and their measured growth.

Check out these entries, answers already filled in.
Return the recorded growth value; entry: CCCCN(CCCC)CC(CN(CC)CC)OC(=O)Nc1ccccc1 (stereo not given)
88.4% (inactive)

Entry `COc1ccc(-n2nc(C(=O)NCC(=O)O)nc2-c2ccccc2)cc1` needs its growth filled in; supply it.
94.2% (inactive)

Could you please provide reported growth for Cc1ccc(C2CC(c3ccc(Nc4nc(NCCO)nc(NCCO)n4)cc3)=NN2c2ccc(Cl)cc2)cc1 (stereo not given) ? Thanks!
79% (inactive)

Next up:
Indicate the recorded growth value for this molecule: `CC(=O)c1ccc(NC(=O)CSc2nnc(-c3cc(-c4ccc(C)cc4)nc4ccccc34)o2)cc1`
59.1% (inactive)

----------
- System: UACC-257 melanoma
- procedure text: NCI-60 one-dose screen, 48 h (100 = growth as untreated, 0 = no growth, -100 = all killed)
- assay setup: 10 µM unless noted
About 83,000 compounds went through this panel and 20% of them were active in at least one assay; those are over-represented in the sample as a whole. Active and inactive are the calls of the source. How the source made its calls: active means growth percent below 10; inactive means the rest.
measured attribute: growth

Below, 3 compounds whose answers are already recorded.
Write growth of COc1cc(C2=NNC(c3ccc(N(C)C)cc3)C2)cc(OC)c1OC (stereo not drawn) ; system used: UACC-257 melanoma
62.6% (inactive)

Look up UACC-257 melanoma data: growth of `COc1ccc(-n2nc(C(=O)NCC(=O)O)nc2-c2ccccc2)cc1` , then report it.
97.1% (inactive)

Answer with growth of `COc1cc(C2=N/C(=C\c3cc4ccccc4nc3Oc3ccccc3)C(=O)N2C(=N)N)cc(OC)c1OC` measured for UACC-257 melanoma.
76.4% (inactive)

Others:
# return growth for `Cn1nc(C(F)(F)F)c(-c2cc(C(F)(F)F)cc(C(F)(F)F)c2)c1-c1ccc(OCc2ccc(Cl)cc2)cc1O` , test system: UACC-257 melanoma
-7.16% (active)

Please tell me the measured growth for `COc1ccc(NC(=O)c2sc3nc(C)c(C(C)=O)cc3c2N)cc1` ; system: UACC-257 melanoma.
88.7% (inactive)

Given `C=CCn1c(CN2CCN(c3cc4c(cc3F)c(=O)c(C(=O)O)cn4C3CC3)CC2)n[nH]c1=S` , report its growth on UACC-257 melanoma.
105% (inactive)

Enter recorded growth with UACC-257 melanoma for `O=C1[C@@H](OS(=O)(=O)CC(F)(F)F)[C@H](c2ccc(F)cn2)N1c1cc2c3ccccc3ccc2c2ccccc12` here.
79% (inactive)

State growth on UACC-257 melanoma. Entry: COc1cc(C2=NN(C=O)C(c3cccc(Nc4ccnc5cc(C(F)(F)F)ccc45)c3)C2)cc(OC)c1OC (stereo not drawn)
81.2% (inactive)

State the measured growth (UACC-257 melanoma) of `COC(=O)CCc1n(Cc2ccc3ccccc3c2)c2ccccc2[n+]1Cc1ccc2ccccc2c1`
-28.2% (active)

State measured growth of the compound `CC1=C(CCCOC(=O)NCCCl)C2=C(C)C3(CC3)[C@@](C)(O)C(=O)C2=C1` with UACC-257 melanoma.
48.5% (inactive)

Enter recorded growth with UACC-257 melanoma for `COc1ccc(/C=C(/C(=O)N2CCN(Cc3ccccc3)CC2)c2cc(OC)c(OC)c(OC)c2)cc1O` here.
54.7% (inactive)

Answer briefly: growth recorded on UACC-257 melanoma for `COc1ccc(C(=O)c2cc(OC)c(C)c(OC)c2)cc1OC(=O)CCl`
60.3% (inactive)

Tell me growth of `C=C1C(=O)O[C@H]2[C@H]1CC/C(COC(=O)c1cccnc1)=C\CC[C@@]1(C)O[C@@H]21` when tested on UACC-257 melanoma.
57.8% (inactive)

Report its growth with UACC-257 melanoma as the test system: `COc1cc(-c2nn(-c3ccc(Br)cc3)cc2CO)ccc1O`
90.7% (inactive)

Provide growth, tested on UACC-257 melanoma, for `COc1ccccc1Nc1nnc(-c2ccc(Cl)cc2)o1` .
65.8% (inactive)

Look up UACC-257 melanoma data: growth of `O=[N+]([O-])c1ccc(Oc2ccc(-c3ccccc3)cc2)cc1` , then report it.
98.1% (inactive)

Report the value of growth obtained on UACC-257 melanoma for `O=c1[nH]nc(-c2ccc(Br)cc2)c2sc(NC(=S)Nc3ccc(Cl)cc3)nc12` .
113% (inactive)

Please report growth with UACC-257 melanoma for item `Sc1cccc2cccnc12` .
24.3% (inactive)

Send back UACC-257 melanoma growth of `Cc1ccc(C2=N[C@H]3CCC[C@@H]3N(c3ccccc3)C(C(Cl)Cl)=N2)cc1` only.
110% (inactive)

Supply growth measured with UACC-257 melanoma for `O=S(=O)(O)c1ccc(N=NSc2ccc3ccccc3c2)cc1` .
113% (inactive)

Using UACC-257 melanoma as the test system, report measured growth of `C=C(C)[C@@H]1CC[C@]2(C(=O)N=C=S)CC[C@]3(C)[C@H](CC[C@@H]4[C@@]5(C)CCC(=O)C(C)(C)[C@@H]5CC[C@]43C)[C@@H]12` .
54.7% (inactive)

Lab note: record growth of `COC(=O)c1oc2c(C(=O)/C=C/c3ccc(OC)cc3)c(OCCCN3CCCCC3)ccc2c1C` tested on UACC-257 melanoma.
40.1% (inactive)

Print UACC-257 melanoma growth for `O=C(Nc1cc(=O)[nH]c(=O)[nH]1)C(Cl)Cl` .
96.5% (inactive)

Using UACC-257 melanoma as the test system, report measured growth of `O=C(CCc1nnc2sc(OCc3ccccc3)nn12)c1nc2ccc([N+](=O)[O-])cc2[nH]1` .
106% (inactive)

----------
growth listing for selected compounds.
- Tested on: MDA-MB-435 melanoma
- procedure text: NCI-60 one-dose screen, 48 h (100 = growth as untreated, 0 = no growth, -100 = all killed)
- assay setup: 10 µM unless noted
Compounds without any hit were thinned out: in the full panel of roughly 83,000, 20% have a hit. Activity calls are given as the source filed them. How the source made its calls: active means growth percent below 10; inactive means the rest.

Supply recorded growth for `CN(C)CCCn1c2c(c3cc(-c4ccco4)ccc3c1=O)C(=O)c1ccccc1-2` here.
66.6% (inactive)

Give the value of growth reported for the following: `Cc1cccc(C)c1NCc1nnc(-c2ccc(O)cc2)o1`
99.1% (inactive)

Given `COC(=O)CCc1n(Cc2ccc3ccccc3c2)c2ccccc2[n+]1Cc1ccc2ccccc2c1` , respond with its growth.
-13.5% (active)

Provide one value: measured growth of `O=c1c2ccccc2oc2ccc(OCCCCCCN3CCCCCC3)cc12`
44.6% (inactive)

Continuing:
Please look at this compound and report its growth: `N#Cc1c(-c2ccc(F)cc2)nc(N=Nc2c(O)[nH]c3ccccc23)nc1N1CCOCC1`
67.7% (inactive)

Recall and state the measured growth for `C=CCn1c(SCC(=O)Nc2ccc(C(=O)/C=C/c3ccc(Cl)cc3)cc2)nnc1-c1cc(OC)c(OC)c(OC)c1` .
93.2% (inactive)

Give reported growth value for `C=C1C(=O)O[C@H]2[C@H]1CC/C(COC(=O)/C=C/c1cccnc1)=C\CC[C@@]1(C)O[C@@H]21`
27.7% (inactive)

Query growth for `Cn1c2ccccc2c2c(OC(=O)c3ccccc3)c3c(nc21)-c1ccccc1C3`
104% (inactive)

Annotate the compound `O=C(/C(=C/c1ccc([N+](=O)[O-])cc1)SCc1ccccc1)c1ccc(Cl)cc1` with its measured growth.
85.7% (inactive)
